details: rat, in vivo, po, pH 7.4
Task for the reader: assign each of the following molecules its reported Po.
Response body: numeric value in cm/s, unit text excluded.

Quick one: Po for O=C1NC(=O)C(c2ccccc2)(c2ccccc2)N1 [Phenytoin] ?
0.000298

Name the recorded Po for Cn1nnc2c(C(N)=O)ncn2c1=O [Temozolamide] .
1.63e-05

Dear colleague, I am looking for the recorded Po of the following molecule: CC(C(=O)O)c1ccc(-c2ccccc2)c(F)c1 (centres unmarked) [Flurbiprofen]
0.38

GET /values?readout=Po&item= CCCC(CCC)C(=O)O [Valproic acid]
0.0292

Field request: Po | item: CCCC(C)C1(CC)C(=O)NC(=O)NC1=O (centres unmarked) [Pentobarbital]
0.000599

Request the reported Po associated with Cc1c(I)c(=O)n(-c2ccccc2)n1C [Iodoantipyrine]
0.00156

Fill blank: measured Po of the molecule Nc1c(O)cccc1C(=O)O [3-hydroxy-anthranilic acid] is ____.
0.000886

Which Po value is on record for CCC1(c2ccccc2)C(=O)NC(=O)NC1=O [Phenobarbital] ?
0.000136

I am curious: what Po value has been reported for OC[C@@H](O)[C@@H](O)[C@H](O)[C@H](O)CO [Mannitol] ?
8.8e-08

Requested read-out: Po. Entry: CC(=O)CC(c1ccccc1)c1c(O)c2ccccc2oc1=O (centres unmarked) [Warfarin]
0.51

GET /values?readout=Po&item= COC(=O)[C@H]1[C@H]2C[C@@H]3c4[nH]c5cc(OC)ccc5c4CCN3C[C@H]2C[C@@H](OC(=O)c2cc(OC)c(OC)c(OC)c2)[C@@H]1OC [Reserpine]
0.00108

Suppose we examine the molecule COc1ccc2c(c1)c(CC(=O)O)c(C)n2C(=O)c1ccc(Cl)cc1 [Indomethacin] ; what Po value has been reported?
0.15

Requested read-out: Po. Entry: O=C(O)c1cccnc1C(=O)O [Quinolinic acid]
7.43e-06

What value of measured Po is listed for Fc1ccc([C@@H]2CCNC[C@H]2COc2ccc3c(c2)OCO3)cc1 [Paroxetine] ?
0.39

Reported Po, molecule OCCCCCCO [1,6-Hexanediol] : ____
0.000379

Give its Po value. Item: CN(C)CCCN1c2ccccc2Sc2ccc(Cl)cc21 [Chlorpromazine]
0.20

Report Po for OC[C@@H](O)[C@@H](O)CO [Erythritol] please.
3.24e-07

Po lookup needed for OC[C@H]1O[C@H](OC[C@H]2O[C@H](O[C@]3(CO)O[C@H](CO)[C@@H](O)[C@@H]3O)[C@H](O)[C@@H](O)[C@@H]2O)[C@H](O)[C@@H](O)[C@H]1O [Raffinose] , thanks.
9.5e-09

Please report the recorded Po for O=C(O)c1cc(=O)c2ccccc2[nH]1 [Kynurenic acid] .
0.026

If you can, please state the reported Po value of CCC1(CC)C(=O)NC(=O)NC1=O [Barbital] .
4.77e-05

Given the entry O=C(O)CCCc1ccc(N(CCCl)CCCl)cc1 [Chlorambucil] , report its measured Po.
0.18

Which Po reading was recorded for the molecule OCC(O)CO [Glycerol] ?
8.29e-07

Returns the measured Po for the input molecule. Input: OCCCCO [1,4-Butanediol]
0.000151

---

conditions: calculated at brain blood flow […] and rat serum fu
Field: Brain Kin. Provide a value for each of the compounds that follow.
Hi! Could you send only the number? It should be in mL/s/g, unit omitted.

Suppose we examine the compound Nc1c(O)cccc1C(=O)O [3-hydroxy-anthranilic acid] ; what Brain Kin value has been reported?
0.000131

Requested read-out: Brain Kin. Entry: Fc1ccc([C@@H]2CCNC[C@H]2COc2ccc3c(c2)OCO3)cc1 [Paroxetine]
0.00164

Data request, read-out Brain Kin, for OC[C@@H](O)[C@@H](O)CO [Erythritol]
9.27e-05

What does the data say about its Brain Kin? Entry: Cc1cc(=O)n(-c2ccccc2)n1C [Antipyrine]
0.0143

Form field: reported Brain Kin of Cc1c(N(C)C)c(=O)n(-c2ccccc2)n1C [Aminopyrine]
0.0201

---

Could you please report measured half-life for the items listed next?
conditions: rat, brain
Quick note: number first, unit second.

For the compound `CCCC(CCC)C(=O)O` , what half-life is on record?
1.86 min

# input compound: `OC[C@@H](O)[C@@H](O)CO` ; wanted: its half-life
160 min

Dear colleague, I am looking for the recorded half-life of the following compound: `OC[C@H]1O[C@@](CO)(O[C@H]2O[C@H](CO)[C@@H](O)[C@H](O)[C@H]2O)[C@@H](O)[C@@H]1O`
120 min

If you can, please state the reported half-life value of `CN(C)CCCN1c2ccccc2Sc2ccc(Cl)cc21` .
61.1 min

Value lookup for half-life; key = Cn1nnc2c(C(N)=O)ncn2c1=O [Temozolamide]
7.65 min

Dear colleague, I am looking for the recorded half-life of the following compound: `Cn1c(=O)c2c(ncn2C)n(C)c1=O`
0.94 min

What value of measured half-life is listed for `CC(=O)[C@H]1CC[C@H]2[C@@H]3CCC4=CC(=O)CC[C@]4(C)[C@H]3CC[C@]12C` ?
0.42 min

Which half-life is reported for this compound? CC(C)NCC(O)COc1cccc2ccccc12 (stereo not drawn)
3.93 min

Dear colleague, I am looking for the recorded half-life of the following compound: `Cn1c(=O)c2[nH]cnc2n(C)c1=O`
4.6 min

---

conditions: calculated at brain blood flow […], with rat serum fu
property: Brain vascular extraction (total)

Returns the measured Brain vascular extraction (total) for the input molecule. Input: COC(=O)[C@H]1[C@H]2C[C@@H]3c4[nH]c5cc(OC)ccc5c4CCN3C[C@H]2C[C@@H](OC(=O)c2cc(OC)c(OC)c(OC)c2)[C@@H]1OC [Reserpine]
31.2%

Look up Brain vascular extraction (total): OC[C@@H](O)[C@@H](O)CO [Erythritol]
0.15%

I am curious: what Brain vascular extraction (total) value has been reported for CC(=O)N[C@@H](CS)C(=O)O [N-acetyl-cysteine] ?
7.60E-05%

Look up Brain vascular extraction (total): Cn1c(=O)c2c(ncn2C)n(C)c1=O [Caffeine]
63.2%

Fill blank: measured Brain vascular extraction (total) of the molecule Cc1c(N(C)C)c(=O)n(-c2ccccc2)n1C [Aminopyrine] is ____.
83.9%

So what's the measured Brain vascular extraction (total) for this one? CCCC(CCC)C(=O)O [Valproic acid]
6.7%

Dear colleague, I am looking for the recorded Brain vascular extraction (total) of the following molecule: CCCCCCO [Hexanol]
89.1%

Fill in: Brain vascular extraction (total) of OC[C@@H](O)[C@@H](O)[C@H](O)[C@H](O)CO [Mannitol] is ___
3.67E-04%

I am curious: what Brain vascular extraction (total) value has been reported for CC(C(=O)O)c1ccc(-c2ccccc2)c(F)c1 (stereo not shown) [Flurbiprofen] ?
0.60%

Could you tell me which Brain vascular extraction (total) is on file for Cn1nnc2c(C(N)=O)ncn2c1=O [Temozolamide] ?
5.3%

---

conditions: rat, in vivo, pH 7.4
Give measured Log Pc for each item. Keep answers brief.
Keep it simple and answer with nothing but the number.

What measured Log Pc goes with CC(=O)CC(c1ccccc1)c1c(O)c2ccccc2oc1=O (centres unmarked) [Warfarin] ?
−4.15

Find the recorded Log Pc belonging to CCCC(C)C1(CC)C(=O)NC(=O)NC1=O (centres unmarked) [Pentobarbital] and report it.
−3.35

Which Log Pc value belongs to OCC(O)CO [Glycerol] ?
−6.08

Could you share which Log Pc value was measured for OC[C@@H](O)[C@@H](O)CO [Erythritol] ?
−6.49

Suppose we examine the molecule OC[C@H]1O[C@H](OC[C@H]2O[C@H](O[C@]3(CO)O[C@H](CO)[C@@H](O)[C@@H]3O)[C@H](O)[C@@H](O)[C@@H]2O)[C@H](O)[C@@H](O)[C@H]1O [Raffinose] ; what Log Pc value has been reported?
−8.02

For the molecule shown here, Cc1c(I)c(=O)n(-c2ccccc2)n1C [Iodoantipyrine] , give the reported Log Pc.
−2.81

Dear colleague, I am looking for the recorded Log Pc of the following molecule: O=C(O)c1cc(=O)c2ccccc2[nH]1 [Kynurenic acid]
−5.92

Report Log Pc for O=C(O)CCCc1ccc(N(CCCl)CCCl)cc1 [Chlorambucil] please.
−3.54

Fill blank: measured Log Pc of the molecule COC(=O)[C@H]1[C@H]2C[C@@H]3c4[nH]c5cc(OC)ccc5c4CCN3C[C@H]2C[C@@H](OC(=O)c2cc(OC)c(OC)c(OC)c2)[C@@H]1OC [Reserpine] is ____.
−3.05

Value lookup for Log Pc; key = CCC1(c2ccccc2)C(=O)NC(=O)NC1=O [Phenobarbital]
−4.19

Which Log Pc value belongs to OCCCCCCO [1,6-Hexanediol] ?
−3.42

Request the reported Log Pc associated with Nc1c(O)cccc1C(=O)O [3-hydroxy-anthranilic acid]
−5.88

Recorded Log Pc for CN(C)CCCN1c2ccccc2Sc2ccc(Cl)cc21 [Chlorpromazine] , please?
−2.51

# input molecule: O=C(O)c1cccnc1C(=O)O [Quinolinic acid] ; wanted: its Log Pc
−7.77

Query (molecule): OCCCCO [1,4-Butanediol] ; field requested: Log Pc
−3.82

What value of Log Pc has been reported for the following molecule? OC[C@@H](O)[C@@H](O)[C@H](O)[C@H](O)CO [Mannitol]
−7.06

Could you tell me which Log Pc is on file for CCCC(CCC)C(=O)O [Valproic acid] ?
−4.04

What measured Log Pc goes with O=C1NC(=O)C(c2ccccc2)(c2ccccc2)N1 [Phenytoin] ?
−3.58

# input molecule: CC(C(=O)O)c1ccc(-c2ccccc2)c(F)c1 (centres unmarked) [Flurbiprofen] ; wanted: its Log Pc
−3.64

Fill in the blank: the reported Log Pc of COc1ccc2c(c1)c(CC(=O)O)c(C)n2C(=O)c1ccc(Cl)cc1 [Indomethacin] is ____.
−4.12

Entry CCC1(CC)C(=O)NC(=O)NC1=O [Barbital] : reported Log Pc = ?
−4.42

Consider the molecule Cn1nnc2c(C(N)=O)ncn2c1=O [Temozolamide] and give its measured Log Pc.
−4.79

Look up Log Pc: Fc1ccc([C@@H]2CCNC[C@H]2COc2ccc3c(c2)OCO3)cc1 [Paroxetine]
−2.91
